Study the reported Ki values for UniProt:P28223 given below; they originate from different publications.
endpoint: Ki (nM)

These solved cases illustrate the format of a correct answer.
[
  {
    "compound": "O=C(c1cc2ccccn2n1)N1CCN(CCc2ccc(F)cc2F)CC1",
    "Ki, nM": 5.7
  },
  {
    "compound": "O=S(=O)(c1ccc(/C=C/c2cccc(F)c2)nc1)c1ccccc1F",
    "Ki, nM": 150
  },
  {
    "compound": "O=S1(=O)c2cccc3cccc(c23)N1CCCCCCN1CCN(c2ccc(Cl)c(Cl)c2)CC1",
    "Ki, nM": 251
  },
  {
    "compound": "CC(Oc1cc(C(F)(F)F)ccc1C(F)(F)F)c1nc(N)nc(N2CCN(C)CC2)n1 (configuration not stated)",
    "Ki, nM": 797
  },
  {
    "compound": "CN(C)C[C@H]1C[C@@H]2c3ccccc3Oc3ccccc3[C@H]2O1",
    "Ki, nM": 16
  },
  {
    "compound": "CC(=O)Nc1ccc(OCCCN2CCC(c3noc4cc(F)ccc34)CC2)cc1C",
    "Ki, nM": 135
  },
  {
    "compound": "Cc1nc(-c2ccc(-c3ccc(C(=O)Nc4cc5c(c(OCCN(C)C)c4)OCC5)cc3)c(C)c2)no1",
    "Ki, nM": 50.1
  },
  {
    "compound": "c1ccc2c(OCCCCCN3CCCCCC3)cccc2c1",
    "Ki, nM": 2610
  }
]

(A) NC(=O)c1ccccc1S(=O)(=O)c1ccc(/C=C/c2ccc(F)cc2F)cc1
(B) Nc1c(F)cccc1C(=O)CCCN1CC[C@H]2[C@@H](C1)c1cccc3c1N2CCCS3
Sort A and B by Ki descending and give the first. Answer by stating the label of the chosen item.
B
(B: 7.6 nM, A: 0.65 nM)

(A) Clc1cccc(N2CCN(CCCCc3cn(-c4ccn5nccc5c4)nn3)CC2)c1Cl
(B) C[C@H](O)c1ccccc1S(=O)(=O)c1ccc(/C=C/c2ccc(F)cc2)cc1
(C) COc1ccc(N2CC=C(c3cccc(Cl)c3)C2=O)cc1OCCN1CCCCC1
(D) O=C(c1nc2ccccn2c1Br)N1CCN(CCc2ccc(F)cc2F)CC1
Output the entries ranked by Ki from maximum down to minimum. # format: label list in the order the request specifies
C, D, A, B

(1) COc1ccc(CCCN2CCC(CCC(=O)c3cc(Cl)c(N)c4c3OCCO4)CC2)cc1OC
(2) Cc1cc2c(cc1OCCCN1CCN(c3cccc4ccccc34)CC1)C(=O)NC2
Please indicate which item has the smaller measured Ki: 1 versus 2 Pick one; state its label.
2
(2: 55.9 nM, 1: 501 nM)

(1) COc1ccc(N2Cc3c(c4ccc(F)cc4n3C)C2=O)cc1OCCN1CCC(C)CC1
(2) CC(=O)NC1CCc2ccc(CCN3CCN(c4nsc5ccccc45)CC3)cc21 (configuration not stated)
(3) Cc1ccc2c(c1)C(C1=C[C@H](C)N(C)CC1)=Nc1cc(Cl)ccc1N2
(4) O=C(c1ccccc1)C1CCN(CCc2ccccc2)CC1
Rank the 4 compounds: largest Ki first, smallest last. // respond by listing labels in the order requested
1, 4, 3, 2

(a) Cc1cc2c(cc1Cl)N(C(=O)Nc1ccc(Oc3cccnc3Cl)nc1)CC2
(b) COc1cc(N2CC(=O)N(c3ccc(Oc4ccccc4)cc3)C2=O)ccc1OCCN1CCCC1
Pick the one with the larger Ki: a vs b Identify your pick by its label.
b
(b: 330 nM, a: 100 nM)

(a) COc1ccc(N2Cc3c(c4cc(Cl)ccc4n3C)C2=O)cc1OCCN1CCC(C)CC1
(b) N#Cc1cccc(NC(=O)NCCCN2CCCC(Cc3ccccc3F)C2)c1 (configuration not stated)
(c) c1ccc2c(N3CCN(CCCCOc4ccc5c(c4)CNC5)CC3)cccc2c1
Kindly order the items shown according to Ki, from the highest value down. Give the order by naming the labels one after another as requested.
b, a, c
(b: 2240 nM, a: 126 nM, c: 5.07 nM)

(I) O=C1NCc2ccc(OCCCN3CCN(c4cccc5ccccc45)CC3)c(Cl)c21
(II) O=C1NCc2ccc(OCCCN3CCN(c4cccc5c4CCO5)CC3)cc21
(III) COc1ccc(C2NCCc3c2[nH]c2ccc(Cl)cc32)c(O)c1 (configuration not stated)
(IV) COc1ccc(CCN(CCCc2ccc(Cl)cc2)CCc2ccc3c(c2)OCO3)cc1OC
Hi! Can you put these in order of Ki, lowest number first? I'd appreciate it if you listed the labels in the requested order.
I, II, III, IV
(I: 2.06 nM, II: 4.29 nM, III: 225 nM, IV: 365 nM)

(a) Nc1ccccc1C(=O)CCCN1CC[C@@H]2[C@H](C1)c1cccc3c1N2CCC3
(b) Cc1ccccc1[C@@H]1C[C@@H](N(C)C)Cc2ccccc21
Select the item with the higher value of Ki from the options a and b listed. Please indicate the selected item by its label.
b

====

Multi-source literature compilation: Ki on UniProtKB P28223.
endpoint: Ki (nM)

Take a look at these entries with their results.
[
  {
    "compound": "O=C(NCCCCN1CCN(c2ccccc2F)CC1)c1cc2ccccc2o1",
    "endpoint": "Ki",
    "quantitativeReadout": 18
  },
  {
    "compound": "COc1ccc(N2Cc3c(F)c(F)cc(Cl)c3C2=O)cc1OCCN1CCC(C)CC1",
    "endpoint": "Ki",
    "quantitativeReadout": 501
  }
]

(a) CCCCC(Oc1cc(Cl)cc(Cl)c1)c1nc(Nc2ccncc2)nc(N2CCN(C)CC2)n1 (stereo not given)
(b) CCCc1cc2c(cc1Cl)N(C(=O)Nc1cccnc1)CC2
(c) CN(C)c1ccc2on(C[C@@H]3C[C@H]4c5ccccc5Oc5ccc(Br)cc5[C@H]4O3)c2c1
(d) CC(=O)OC12C=C(C)C(C(C)C1)C1C(=O)N(OCCCN3CCN(c4ccccn4)CC3)C(=O)C12 (stereo not given)
(e) Fc1ccc2c(C3CCN(CCCOc4ccc(CN5CCOCC5)c(Cl)c4)CC3)noc2c1
// ranking: key=Ki, reverse=True Dear reader, please state the labels in the requested order.
d, b, a, c, e

====

Across several publications, the following Ki results were reported for 5-hydroxytryptamine receptor 2A (Homo sapiens).
endpoint: Ki (nM)

Example results:
[
  {
    "compound": "Cn1cc(Br)c(C(=O)N2CCN(CCc3ccccc3)CC2)n1",
    "assayedSystem": "5-hydroxytryptamine receptor 2A (Homo sapiens)",
    "Ki [nM]": 68
  },
  {
    "compound": "Cn1cc(Br)c(C(=O)N2CCN(CCc3cccc(F)c3)CC2)n1",
    "assayedSystem": "5-hydroxytryptamine receptor 2A (Homo sapiens)",
    "Ki [nM]": 542
  },
  {
    "compound": "O=C1NCc2ccc(OCCCCN3CCN(c4cccc5c4CCO5)CC3)cc21",
    "assayedSystem": "5-hydroxytryptamine receptor 2A (Homo sapiens)",
    "Ki [nM]": 53.4
  },
  {
    "compound": "Fc1ccccc1-c1cc(Cl)cc2c1N1CCNCCC1C2 (stereo not drawn)",
    "assayedSystem": "5-hydroxytryptamine receptor 2A (Homo sapiens)",
    "Ki [nM]": 141
  },
  {
    "compound": "Cc1ccccc1CN[C@@H](C)Cn1ccc2ccc3ncccc3c21",
    "assayedSystem": "5-hydroxytryptamine receptor 2A (Homo sapiens)",
    "Ki [nM]": 1680
  }
]

(a) Cc1cc2c(cc1Cl)CCN2C(=O)Nc1ccc(Oc2cccnc2C)nc1
(b) O=S(=O)(NCCCCN1CCN(c2cccc(Cl)c2Cl)CC1)c1cccc2cccnc12
(c) O=C(CCCN1CC[C@H]2[C@@H](C1)c1cccc3c1N2CCCC3)c1ccc(F)cc1
(d) N#Cc1cccc(NC(=O)NCCCN2CCCC(Cc3ccc(F)cc3F)C2)c1 (stereo not drawn)
(e) CC1CC2(C)CC(=O)C1C1C(=O)N(OCCCN3CCN(c4ccccc4F)CC3)C(=O)C12 (stereo not drawn)
Order the 5 compounds from highest to lowest Ki. List the labels according to the requested ordering.
d, e, a, b, c

(a) O=C1NCc2ccc(OCCCCN3CCN(c4cccc5cccc(F)c45)CC3)cc21
(b) COc1ccccc1-c1cc(C2CCNC2)ccc1Cl (stereo not drawn)
(c) Nc1cc(F)ccc1C(=O)CCCN1CC[C@@H]2[C@H](C1)c1cccc3c1N2CCCC3
Ascending by Ki, please. List each label, following the requested order.
c, a, b

(I) O=C(c1cc2ncccn2n1)N1CCN(CCc2ccc(F)cc2F)CC1
(II) CC(C)n1nc2c(c1-c1ccccc1)CCNCC2
// task: argmin of Ki over [ I , II ] Which one? Tell me its label.
I
(I: 5.6 nM, II: 24 nM)

====

pKi: −log10 of the molar value.
Field: pKi. System: 5-hydroxytryptamine receptor 2A (Homo sapiens, UniProt P28223). Provenance: assorted publications.
endpoint: pKi

// known answers, use as guide
[
  {
    "molecule": "O=C1c2ccccc2CCCN1CCCCN1CCN(c2cccc(Cl)c2Cl)CC1",
    "pKi": 8.00
  },
  {
    "molecule": "O=C(NCCCCN1CCN(c2ccccc2)CC1)c1ccc2ccccc2n1",
    "pKi": 7.01
  },
  {
    "molecule": "CCc1ccc2c(c1)C(C1=C[C@H](C)N(C)CC1)=Nc1cc(Cl)ccc1N2",
    "pKi": 10.03
  }
]

(P) O=C1CCc2ccc(OCCCCN3CCN(c4cccc(Cl)c4F)CC3)nc2N1
(Q) Brc1ccc2c(c1)[C@H]1O[C@H](Cn3oc4ccc(-c5ccccc5)cc43)C[C@H]1c1ccccc1O2
Please state the entry with greater pKi among P and Q . Return value: the label identifying the chosen record.
P
(P: 7.98, Q: 6.51)
